# SYSTEM: hITK enzyme (FLAG-tagged full-length hITK) (Homo sapiens, UniProt Q08881)
# Construct: strongly expressing FLAG-tagged full-length hITK in Sf9 cells; FLAG; made in house; host or cells: Sf9 insect cells (ITK); Escherichia coli (GST-SLP76 substrate)
# TEST: ITK inhibitory activity (HTRF kinase assay, biotinylated GST-SLP76 substrate)
# Format: biochemical
# SETTINGS: IC50 calculated from the 2 test compound concentrations sandwiching 50% ITK inhibitory rate
pIC50: −log10 of the molar value.
VALUE_TYPE: pIC50

# example entries with known answers
Record summary for CN(C(=O)CC1CCC(=O)N1C)c1ccc2cc(-c3n[nH]c4c3CCC(C)(C)C4)[nH]c2c1 (stereo not drawn) : reported pIC50 = 8.30

Record summary for CCN(C(=O)CC1CCOCC1)c1ccc2cc(-c3n[nH]c4c3CCC(C)(C)C4)[nH]c2c1 : reported pIC50 = 8.30

Record summary for CC1(C)CCc2c(-c3cc4cc(C(=O)N5CCOCC5)ccc4[nH]3)n[nH]c2C1 : reported pIC50 = 7.36

P: C[C@H](C(=O)N(C)c1ccc2cc(-c3n[nH]c4c3CCC(C)(C)C4)[nH]c2c1)N1CCOCC1
Q: CC1(C)CCc2c(-c3cc4cc(C(=O)NC(C)(C)C(=O)OC(C)(C)C)ccc4[nH]3)n[nH]c2C1
Name the one with the greater pIC50 value, either P or Q as given. Respond using the label that marks the chosen record. P

A: CNCC(=O)N(C)c1ccc2cc(-c3n[nH]c4c3CCC(C)(C)C4)[nH]c2c1
B: CC(C(=O)N(C)c1ccc2cc(-c3n[nH]c4c3CCC(C)(C)C4)[nH]c2c1)N1CCC(O)CC1 (stereo not drawn)
When the recorded pIC50 values are compared, which is smaller: that of A or that of B ? Respond using the label that marks the chosen record. B
(B: 7.82, A: 8.10)

I: CC(C(=O)N(CCO)c1ccc2cc(-c3n[nH]c4c3CCC(C)(C)C4)[nH]c2c1)C1CCOCC1 (stereo not drawn)
II: CC(C)CC(=O)N(C)c1ccc2cc(-c3n[nH]c4c3CCCC4)[nH]c2c1
III: CC1(C)CCc2c(-c3cc4ccc(N(CCO)C(=O)CN5CCCCCC5=O)cc4[nH]3)n[nH]c2C1
Please rank these molecules by pIC50 in descending order. Form entry: labels listed in requested order. III, I, II

a: COC1CCCC(C(=O)N(C)c2ccc3cc(-c4n[nH]c5c4CCC(C)(C)C5)[nH]c3c2)C1 (stereo not drawn) [Example 99]
b: COC(CO)C(=O)N(C)c1ccc2cc(-c3n[nH]c4c3CCC(C)(C)C4)[nH]c2c1 (stereo not drawn)
c: CN(C(=O)c1ccccc1)c1ccc2cc(-c3n[nH]c4c3CCCC4)[nH]c2c1
Order each entry by recorded pIC50, climbing from the minimum. Form entry: labels listed in requested order. c, a, b

* * *

# SYSTEM: hITK enzyme (FLAG-tagged full-length hITK) (Homo sapiens, UniProt Q08881)
# Construct: strongly expressing FLAG-tagged full-length hITK in Sf9 cells; FLAG; made in house; host or cells: Sf9 insect cells (ITK); Escherichia coli (GST-SLP76 substrate)
# Sequence (Q08881 1-620): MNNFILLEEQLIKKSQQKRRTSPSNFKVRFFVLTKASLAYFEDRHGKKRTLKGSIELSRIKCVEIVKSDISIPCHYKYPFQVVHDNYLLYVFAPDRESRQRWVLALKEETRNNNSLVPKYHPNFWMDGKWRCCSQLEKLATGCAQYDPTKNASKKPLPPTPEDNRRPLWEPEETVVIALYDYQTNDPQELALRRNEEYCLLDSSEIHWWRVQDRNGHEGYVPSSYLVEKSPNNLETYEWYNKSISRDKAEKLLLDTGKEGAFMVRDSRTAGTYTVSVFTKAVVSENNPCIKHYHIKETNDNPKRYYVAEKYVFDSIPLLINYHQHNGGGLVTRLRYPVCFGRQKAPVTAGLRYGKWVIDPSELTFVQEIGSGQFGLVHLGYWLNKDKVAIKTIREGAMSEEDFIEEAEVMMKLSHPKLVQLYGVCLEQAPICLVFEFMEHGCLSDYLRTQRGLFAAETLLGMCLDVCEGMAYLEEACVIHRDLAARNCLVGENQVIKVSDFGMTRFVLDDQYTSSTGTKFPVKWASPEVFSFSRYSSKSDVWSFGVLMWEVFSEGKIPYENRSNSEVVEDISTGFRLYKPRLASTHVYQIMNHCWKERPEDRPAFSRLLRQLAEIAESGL
# TEST: ITK inhibitory activity (HTRF kinase assay, biotinylated GST-SLP76 substrate)
# Assay type: biochemical
# SETTINGS: IC50 calculated from the 2 test compound concentrations sandwiching 50% ITK inhibitory rate
# Procedure: (1) Preparation of hITK Enzyme hITK enzyme was prepared by strongly expressing FLAG-tagged full-length hITK in Sf9 cells, and purifying same by anti-FLAG antibody column. (2) Preparation of biotinylated GST-SLP76 […] The Ratio (fluorescence intensity at 665 nm/fluorescence intensity at 620 nm×10000) of each test compound was calculated from the measured fluorescence intensity. […]
VALUE_TYPE: IC50 (nM)

Record summary for CCN(C(=O)CN1CC(C)(C)OCC1=O)c1ccc2cc(-c3n[nH]c4c3CCC(C)(C)C4)[nH]c2c1 : reported IC50 = 1

a: CN(C(=O)CN1CCC(C)(C)CC1=O)c1ccc2cc(-c3n[nH]c4c3CCC(C)(C)C4)[nH]c2c1
b: CN(C(=O)C1CCOC1)c1ccc2cc(-c3n[nH]c4c3CCC(C)(C)C4)[nH]c2c1 (stereo not shown)
When the recorded IC50 values are compared, which is smaller: that of a or that of b ? Respond using the label that marks the chosen record. a
(a: 1 nM, b: 3 nM)

* * *

# SYSTEM: hITK enzyme (FLAG-tagged full-length hITK) (Homo sapiens, UniProt Q08881)
# Construct: strongly expressing FLAG-tagged full-length hITK in Sf9 cells; FLAG; made in house; host or cells: Sf9 insect cells (ITK); Escherichia coli (GST-SLP76 substrate)
# TEST: ITK inhibitory activity (HTRF kinase assay, biotinylated GST-SLP76 substrate)
# Assay type: biochemical
# SETTINGS: IC50 calculated from the 2 test compound concentrations sandwiching 50% ITK inhibitory rate
pIC50: −log10 of the molar value.
VALUE_TYPE: pIC50

Record summary for CC1(C)CCc2c(-c3cc4cc(C(=O)N5C[C@@H](O)[C@@H](O)C5)ccc4[nH]3)n[nH]c2C1 [Example 335] : reported pIC50 = 7.59

Record summary for CC(C(=O)N(C)c1ccc2cc(-c3n[nH]c4c3CCC(C)(C)C4)[nH]c2c1)N1CCCCC1=O (stereo not shown) [Example 133] : reported pIC50 = 8.00

Record summary for CCN1CCN(C(=O)c2ccc3[nH]c(-c4n[nH]c5c4CCC(C)(C)C5)cc3c2)CC1 [Example 337] : reported pIC50 = 7.31

I: C[C@H](C(=O)N(CCO)c1ccc2cc(-c3n[nH]c4c3CCC(C)(C)C4)[nH]c2c1)N1CCOCC1 [Example 252]
II: CN(C(=O)CN1CCCS1(=O)=O)c1ccc2cc(-c3n[nH]c4c3CCC(C)(C)C4)[nH]c2c1 [Example 138]
When the recorded pIC50 values are compared, which is smaller: that of I or that of II ? Respond using the label that marks the chosen record. I
(I: 7.96, II: 8.52)

A: CC1(C)CCc2c(-c3cc4cc(C(=O)N5CCCCC5)ccc4[nH]3)n[nH]c2C1 [Example 333]
B: CC(N(C)C(=O)c1ccc2[nH]c(-c3n[nH]c4c3CCC(C)(C)C4)cc2c1)C(C)(C)C (stereo not shown) [Example 300]
When the recorded pIC50 values are compared, which is smaller: that of A or that of B ? Respond using the label that marks the chosen record. B
(B: 6.66, A: 6.97)

* * *

# SYSTEM: hITK enzyme (FLAG-tagged full-length hITK) (Homo sapiens)
# Construct: strongly expressing FLAG-tagged full-length hITK in Sf9 cells; FLAG; made in house; host or cells: Sf9 insect cells (ITK); Escherichia coli (GST-SLP76 substrate)
# TEST: ITK inhibitory activity (HTRF kinase assay, biotinylated GST-SLP76 substrate)
# Format: biochemical
# SETTINGS: IC50 calculated from the 2 test compound concentrations sandwiching 50% ITK inhibitory rate
VALUE_TYPE: IC50 (nM)

Record summary for CC1COCC(=O)N1CC(=O)N(C)c1ccc2cc(-c3n[nH]c4c3CCC(C)(C)C4)[nH]c2c1 (stereo not shown) : reported IC50 = 2

I: CCC(=O)N(C)c1ccc2cc(-c3n[nH]c4c3CC(O)C(C)(C)C4)[nH]c2c1 (stereo not shown)
II: CO[C@@H]1CCCN(CC(=O)N(C)c2ccc3cc(-c4n[nH]c5c4CCC(C)(C)C5)[nH]c3c2)C1
III: CC(=O)N(C)CC(=O)N(C)c1ccc2cc(-c3n[nH]c4c3CCC(C)(C)C4)[nH]c2c1
IV: CCN(C(=O)CN(C)C(C)=O)c1ccc2cc(-c3n[nH]c4c3CCC(C)(C)C4)[nH]c2c1
Order each entry by recorded IC50, climbing from the minimum. Form entry: labels listed in requested order. IV, III, II, I
(IV: 1 nM, III: 2 nM, II: 4 nM, I: 8 nM)
